MEASURED_TARGET: HIV-1 reverse transcriptase (Human immunodeficiency virus type 1 group M subtype B)
RECORDED_METRIC: IC50 (nM)
Give the quantity in nM, number only.

Ask: Query for HIV-1 reverse transcriptase (Human immunodeficiency virus type 1 group M subtype B): what IC50 does the record show for Cc1cc(C)c(Nc2ccnc(Nc3ccc(C#N)cc3)n2)c(C)c1 [compound B] ?
Result: 24

----------
MEASURED_TARGET: UniProtKB P04585
PROCEDURE_DETAILS: Steady state kinetics of RNA-dependent DNA polymerization by HIV-1 RT
Format: biochemical
PARTICULARS: against dGTP; p(rC)p(dG) constant
RECORDED_METRIC: pKi
API: returns pKi as number; meaning -log10 of concentration in mol/L.

Ask: # lookup: pKi of Cc1cc(C)c(Nc2ccnc(Nc3ccc(C#N)cc3)n2)c(C)c1 [compound B]
Result: 7.48

----------
MEASURED_TARGET: HIV-1 reverse transcriptase (HIV-1 RT) (Human immunodeficiency virus type 1 group M subtype B)
PROCEDURE_DETAILS: Steady state kinetics of RNA-dependent DNA polymerization by HIV-1 RT
Assay type: biochemical
PARTICULARS: against p(rC)p(dG); substrate constant
RECORDED_METRIC: Ki
A complete answer gives the number followed by the unit.

Ask: # lookup: Ki of Cc1cc(C)c(Nc2ccnc(Nc3ccc(C#N)cc3)n2)c(C)c1 [compound B]
Result: 28 nM

----------
System: HIV Ba-L
PROCEDURE_DETAILS: Prevention of HIV Ba-L infection in MO-DC/CD4(+) T cell co-cultures (ELISA, secondary culture, PCR)
Format: cell-based
PARTICULARS: Human immunodeficiency virus 1, BAL, T-cell, Continuous treatment; Cell-free HIV; MO-DC/CD4(+) T cells; read-out: EC50 (inhibiting 50% of HIV Ba-L replication)
RECORDED_METRIC: EC50

Ask: # lookup: EC50 of Cc1cc(C)c(Nc2ccnc(Nc3ccc(C#N)cc3)n2)c(C)c1 [compound B]
Result: < 0.1 nM
